Provide the reported EC50 of each item.
Molecular target: cloned human M4 receptor (Homo sapiens)
Construct: purchased Perkin-Elmer RBHM4M; host or cells: CHO cell membranes
Sequence (P08173 1-479): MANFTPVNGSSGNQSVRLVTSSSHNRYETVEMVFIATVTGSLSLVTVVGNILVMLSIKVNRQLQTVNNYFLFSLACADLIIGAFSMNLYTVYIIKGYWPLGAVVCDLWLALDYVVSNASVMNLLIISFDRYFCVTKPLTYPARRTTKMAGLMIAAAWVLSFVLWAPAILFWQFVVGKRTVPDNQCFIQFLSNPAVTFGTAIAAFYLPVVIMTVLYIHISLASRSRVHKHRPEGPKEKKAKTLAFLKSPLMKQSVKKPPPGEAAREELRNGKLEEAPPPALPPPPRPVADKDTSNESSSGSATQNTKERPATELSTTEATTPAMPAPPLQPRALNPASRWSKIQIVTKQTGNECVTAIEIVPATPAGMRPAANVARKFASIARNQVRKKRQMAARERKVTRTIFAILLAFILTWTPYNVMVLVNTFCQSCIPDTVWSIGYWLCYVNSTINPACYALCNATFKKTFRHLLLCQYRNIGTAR
Assay: hM4 receptor GTPγS binding
Assay type: biochemical
Details: CHO membranes expressing hM4, [35S]GTPγS binding

(Q) In one line, give reported EC50 of the entry CC(C)OC(=O)N1CCC(C)(N2CCC(N3C(=O)N[C@H]4CCCC[C@@H]43)CC2)CC1 [Example 02] .
(A) > 30 µM

(Q) In one line, give reported EC50 of the entry CCOC(=O)N1CCC(C)(N2CCC(N3C(=O)N[C@H]4CCCC[C@@H]43)CC2)C1 (single isomer, unassigned) [Example 22] .
(A) 3.47 µM

(Q) In one line, give reported EC50 of the entry CCOC(=O)N1CCC(C)(N2CCC(N3C(=O)N[C@@H]4CCCC[C@@H]43)CC2)CC1 (relative stereo) [Example 12] .
(A) > 4 µM

(Q) In one line, give reported EC50 of the entry CCOC(=O)N1CCC(C)(N2CCC(N3C(=O)N[C@@H]4CCCC[C@H]43)CC2)CC1 [Example 04] .
(A) > 6.1 µM

(Q) In one line, give reported EC50 of the entry CCC(=O)N1CCC(C)(N2CCC(N3C(=O)N[C@H]4CCCC[C@@H]43)CC2)CC1 [Example 18] .
(A) > 30 µM

(Q) In one line, give reported EC50 of the entry CC1(N2CCC(N3C(=O)C[C@H]4CCCC[C@@H]43)CC2)CCN(C(=O)C2CC2)CC1 [Example 15] .
(A) > 30 µM

(Q) In one line, give reported EC50 of the entry CCOC(=O)N1CCC(C)(N2CCC(N3C(=O)N[C@H]4CCCC[C@@H]43)CC2)C1 (mixture of isomers) [Example 07] .
(A) > 21 µM
